List of Kd values.
# Study Target: BRD4 bromodomains (Homo sapiens, UniProt O60885)
# Construct: fused on or other part: T7 phage capsid protein (phage-display fusion; the phage DNA is read out by qPCR)
# Assay Comment: BROMOscan bromodomain competition binding assay (DiscoveRx)
# Experimental Conditions: Kd from 11 compound concentrations ranging from 0 to 10 μM, read-out: BROMOscan Relative Activity

Look over these answered cases.
# Compound, Study Target, Kd
records = [
    ("Cc1noc(C)c1-c1ccc2nc(-c3cnn(CC(N)=O)c3)nc(NCc3cccc(Cl)c3)c2c1 [Example 50]", "BRD4 bromodomains (Homo sapiens, UniProt O60885)", "< 500 nM"),
    ("Cc1noc(C)c1-c1ccc2nc(C(=O)NC3CCOCC3)cc(NCc3cccc(Cl)c3)c2c1 [Example 236]", "BRD4 bromodomains (Homo sapiens, UniProt O60885)", "< 500 nM"),
    ("Cc1noc(C)c1-c1ccc2c(NCc3cccc(Cl)c3)nc(Cl)nc2c1 [Example 38]", "BRD4 bromodomains (Homo sapiens, UniProt O60885)", "500 to 5000 nM"),
    ("Cc1noc(C)c1-c1ccc2nc(-c3cnn(CCC#N)c3)nc(NCc3cccc(Cl)c3)c2c1 [Example 57]", "BRD4 bromodomains (Homo sapiens, UniProt O60885)", "< 500 nM"),
    ("Cc1noc(C)c1-c1ccc2nc(N3CCN(CC(C)(C)O)CC3)nc(N3CCOC[C@@H]3c3ccccc3)c2c1 [Example 295]", "BRD4 bromodomains (Homo sapiens, UniProt O60885)", "< 500 nM"),
    ("Cc1noc(C)c1-c1ccc2nc(N3CCN(CCN(C)C)CC3)nc(NCc3ccc(Cl)s3)c2c1 [Example 94]", "BRD4 bromodomains (Homo sapiens, UniProt O60885)", "< 500 nM"),
]

Exercise: Query: Kd; subject: Cc1noc(C)c1-c1ccc2nc(N3CCN(CCN(C)C)CC3)nc(NC(C)c3cccc(Cl)c3)c2c1 (stereo not shown) [Example 90]
Key: < 500 nM

Exercise: Which Kd reading was recorded for the compound Cn1cc(-c2ccc3nc(-c4cnn(CCO)c4)nc(NCc4cncc(Cl)c4)c3c2)ccc1=O [Example 143] ?
Key: < 500 nM

###

# Study Target: BRD4 bromodomains (Homo sapiens, UniProt O60885)
# Construct: fused on or other part: T7 phage capsid protein (phage-display fusion; the phage DNA is read out by qPCR)
# Assay Comment: BROMOscan bromodomain competition binding assay (DiscoveRx)
# Experimental Conditions: Kd from 11 compound concentrations ranging from 0 to 10 μM, read-out: BROMOscan Relative Activity
# Kd per entry

Recorded results for 10 molecules are shown here.
# Molecule, Study Target, Kd
records = [
    ("Cn1cc(-c2ccc3nc(-c4cnn(CC(N)=O)c4)nc(NCc4cncc(Cl)c4)c3c2)ccc1=O", "BRD4 bromodomains (Homo sapiens, UniProt O60885)", "500 to 5000 nM"),
    ("Cc1noc(C)c1-c1ccc2nc(N3CCC4(CCN(C)C4=O)CC3)nc(N3CCOC[C@@H]3c3ccccc3)c2c1", "BRD4 bromodomains (Homo sapiens, UniProt O60885)", "< 500 nM"),
    ("Cn1cc(-c2ccc3nc(N4CCN(C(=O)CN)CC4)nc(NCc4cncc(Cl)c4)c3c2)ccc1=O", "BRD4 bromodomains (Homo sapiens, UniProt O60885)", "< 500 nM"),
    ("Cc1noc(C)c1-c1ccc2ncnc(N3CCOCC3c3ccccc3)c2c1 (stereo not drawn)", "BRD4 bromodomains (Homo sapiens, UniProt O60885)", "< 500 nM"),
    ("Cc1noc(C)c1-c1ccc2ncnc(Nc3ccc(Cl)cc3)c2c1", "BRD4 bromodomains (Homo sapiens, UniProt O60885)", "500 to 5000 nM"),
    ("Cc1noc(C)c1-c1ccc2nc(C(=O)N3CCc4cnn(C)c4C3)nc(N3CCOC[C@@H]3c3ccccc3)c2c1", "BRD4 bromodomains (Homo sapiens, UniProt O60885)", "500 to 5000 nM"),
    ("Cc1noc(C)c1-c1ccc2nc(N3CCN(CCN(C)C)CC3)nc(N3CCC3c3ccccc3)c2c1 (stereo not drawn)", "BRD4 bromodomains (Homo sapiens, UniProt O60885)", "< 500 nM"),
    ("Cc1noc(C)c1-c1ccc2nc(N3CCS(=O)(=O)CC3)nc(NCc3cccc(Cl)c3)c2c1", "BRD4 bromodomains (Homo sapiens, UniProt O60885)", "500 to 5000 nM"),
    ("Cc1noc(C)c1-c1ccc2nc(N3CCc4[nH]ncc4C3)nc(NCc3cccc(Cl)c3)c2c1", "BRD4 bromodomains (Homo sapiens, UniProt O60885)", "500 to 5000 nM"),
    ("Cc1nc(C)c(CNC(=O)c2nc(NCc3cccc(Cl)c3)c3cc(-c4c(C)noc4C)ccc3n2)s1", "BRD4 bromodomains (Homo sapiens, UniProt O60885)", "< 500 nM"),
]

Exercise: Value wanted: Kd (BRD4 bromodomains (Homo sapiens, UniProt O60885)) of entry "Cc1oncc1-c1ccc2nc(N3CCN(CCN(C)C)CC3)nc(NCc3cccc(Cl)c3)c2c1"
Key: 500 to 5000 nM

Exercise: Hello, I am looking for reported Kd with BRD4 bromodomains (Homo sapiens, UniProt O60885) for "Cc1noc(C)c1-c1ccc2nc(N3CCN(CCN(C)C)CC3)nc(NC3(c4cccc(Cl)c4)CC3)c2c1" . Could you help?
Key: < 500 nM

Exercise: What Kd appears in the records for this molecule with BRD4 bromodomains (Homo sapiens, UniProt O60885)? "Cc1noc(C)c1-c1ccc2nc(NCc3ncc[nH]3)nc(NCc3cccc(Cl)c3)c2c1"
Key: < 500 nM

Exercise: GET /values?readout=Kd&system=BRD4 bromodomains (Homo sapiens, UniProt O60885)&item= "Cc1noc(C)c1-c1ccc2nc(N3CCN(CCO)CC3)nc(NCc3cccc(Cl)c3)c2c1"
Key: < 500 nM

Exercise: Write down the reported Kd of "Cc1noc(C)c1-c1ccc2nc(C(=O)NC3CS(=O)(=O)C3)nc(NCc3cccc(Cl)c3)c2c1" , test system: BRD4 bromodomains (Homo sapiens, UniProt O60885).
Key: < 500 nM

Exercise: Find the measured Kd: item "Cn1cc(-c2ccc3nc(-c4cnn(C(C)(C)CO)c4)nc(NCc4cncc(Cl)c4)c3c2)ccc1=O" , target or system BRD4 bromodomains (Homo sapiens, UniProt O60885).
Key: < 500 nM

###

Property: pKd; scope: individual molecules
# Study Target: BRD4 bromodomains (Homo sapiens, UniProt O60885)
# Construct: fused on or other part: T7 phage capsid protein (phage-display fusion; the phage DNA is read out by qPCR)
# Assay Comment: BROMOscan bromodomain competition binding assay (DiscoveRx)
# Experimental Conditions: Kd from 11 compound concentrations ranging from 0 to 10 μM, read-out: BROMOscan Relative Activity
pKd: −log10 of the molar value.

# Mol Smiles, pKd
records = [
    ("Cc1noc(C)c1-c1ccc2nc(-c3cnn(CCO)c3)nc(Nc3ccc(Cl)cc3)c2c1", "5.30 to 6.30"),
    ("Cc1noc(C)c1-c1ccc2nc(C(=O)NCc3cncc(F)c3)nc(NCc3cccc(Cl)c3)c2c1", "> 6.30"),
    ("CNC(=O)Cn1cc(-c2nc(N3CCOC[C@@H]3c3ccccc3)c3cc(-c4c(C)noc4C)ccc3n2)cn1", "> 6.30"),
]

API: the following record is the query input.
Exercise: Given the entry "COc1ccccc1CNc1nc(N2CCN(CCN(C)C)CC2)nc2ccc(-c3c(C)noc3C)cc12" , what pKd was observed with BRD4 bromodomains (Homo sapiens, UniProt O60885)?
Key: > 6.30

###

# Study Target: BRD4 bromodomains (Homo sapiens)
# Construct: fused on or other part: T7 phage capsid protein (phage-display fusion; the phage DNA is read out by qPCR)
# Assay Comment: BROMOscan bromodomain competition binding assay (DiscoveRx)
# Experimental Conditions: Kd from 11 compound concentrations ranging from 0 to 10 μM, read-out: BROMOscan Relative Activity
The entries below come with measured Kd values attached.

Check out these entries, answers already filled in.
# Mol Smiles, Attribute Measured, Value
records = [
    ("Cc1noc(C)c1-c1ccc2nc(NCc3cccc(Cl)c3)cc(N3CCN(CCN(C)C)CC3)c2c1", "Kd", "500 to 5000 nM"),
    ("Cc1noc(C)c1-c1ccc2nc(C3=CCN(S(C)(=O)=O)CC3)nc(NCc3cccc(Cl)c3)c2c1", "Kd", "500 to 5000 nM"),
    ("Cc1noc(C)c1-c1ccc2nc(C(=O)NCc3ccnc(Cl)c3)nc(NCc3cccc(Cl)c3)c2c1", "Kd", "< 500 nM"),
    ("CN(C)CCN1CCN(c2nc(NCc3cccc(Cl)c3)c3cc(Br)ccc3n2)CC1", "Kd", "> 5000 nM"),
    ("Cc1noc(C)c1-c1ccc2nc(C(=O)NCc3cncc(Cl)c3)nc(NCc3cccc(Cl)c3)c2c1", "Kd", "< 500 nM"),
]

Exercise: Consider the compound shown here: "Cc1noc(C)c1-c1ccc2nc(N3CCC(S(C)(=O)=O)CC3)nc(NCc3cncc(Cl)c3)c2c1" What is its recorded Kd?
Key: < 500 nM

Exercise: Need Kd of "Cc1noc(C)c1-c1ccc2nc(N3CCN(C(=O)c4cnn(C)c4)CC3)nc(N3CCOC[C@@H]3c3ccccc3)c2c1" , thanks.
Key: < 500 nM

Exercise: Sample "Cc1noc(C)c1-c1ccc2nc(-c3cnn(CC(=O)N(C)C)c3)nc(NCc3cccc(Cl)c3)c2c1" — what was its Kd?
Key: < 500 nM

// provenance: patent US11028079B2
